For each of the compounds below, state its CC50.
test system: MT4; assay: Cytotoxicity against human MT-4 cells assessed as inhibition of cell viability incubated for 48 hrs by MTS/PES assay; assay type: cell-based; settings: mt4, 48 h

The reported value for C=C1CN(S(=O)(=O)c2ccc(C)cc2)CCc2cc(CCC)cc(n2)CCN(S(=O)(=O)c2ccc(C)cc2)C1.Cl in terms of CC50 is > 100 µM

The reported value for C=C1CN(S(=O)(=O)c2ccc(C)cc2)CCc2cc(OCc3ccccc3)cc(n2)CCN(S(=O)(=O)c2ccc(C)cc2)C1 in terms of CC50 is > 100 µM

The reported value for C=C1CN(S(=O)(=O)c2ccc(C)cc2)CCc2cc(-c3ccccc3)cc(n2)CCN(S(=O)(=O)c2ccc(C)cc2)C1.Cl in terms of CC50 is > 100 µM
